Target: T1, AFP p26 (human, UniProt P02771 381-609)
T1 construct: The construct used is not described
T1 sequence: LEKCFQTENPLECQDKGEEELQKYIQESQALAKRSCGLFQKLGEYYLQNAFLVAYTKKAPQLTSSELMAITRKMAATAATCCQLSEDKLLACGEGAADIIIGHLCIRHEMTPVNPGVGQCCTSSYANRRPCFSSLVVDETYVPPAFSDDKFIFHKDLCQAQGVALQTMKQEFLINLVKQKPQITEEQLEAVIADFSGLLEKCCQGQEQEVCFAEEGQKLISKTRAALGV
Experiment: phage ELISA, A450 target/A450 IgG1-Fc
measurementLabel: ELISA_avg

Recorded results for 5 binders are shown here.
SEQ ID NO 827 (designed binder) MGSWEHFKVELAGIKAYLEALGGSEAELALFEWAIADFESILQDYKGKGNPEVEALRKEAAAIRDELQAYRHN
18.1 ratio
SEQ ID NO 843 (designed binder) MGSWYIFKQELASIKLSLEALGGSEAELAHFEAEIAWFEWWLQWYKGKGNPEVEALRKEAAAIRDELQAYRHN
19.4 ratio
SEQ ID NO 744 (designed binder) MGSWVEFSGRLIAIDNRLWALGGSEAELAAFEKEIAAFESELQAYKGKGNPEVEYLRMWAAEIRYILQAYRHN
5.28 ratio
SEQ ID NO 791 (designed binder) MGSWMEFNHRLQAIDGRLWALGGSEAELAAFEKEIAAFESELQAYKGKGNPEVEMLREHAAAIRAFLQAYRHN
33.4 ratio
SEQ ID NO 773 (designed binder) MGSWNEFFQRLNAIDERLWALGGSEAELAAFEKEIAAFESELQAYKGKGNPEVEDLRQHAANIRWWLQAYRHN
28.7 ratio

The record that follows has no ELISA_avg shown yet.
stdin: Look up ELISA_avg for this binder: SEQ ID NO 800 (designed binder) MGSWYEFVIRLDAIEDRLFALGGSEAELAAFEKEIAAFESELQAYKGKGNPEVEHLRVHAAHIRVWLQAYRHN
stdout: 30.1 ratio
